Catalogue of IC50 of virus neutralization (TZM-BL, luciferase) values
molecular target: HIV-1 DU172.17 envelope (Env) on Env.IMC.LucR virus (HIV-1 clade C); assay: cell-based or functional assay
measurementKind: IC50 of virus neutralization (TZM-BL, luciferase) (µg/mL)

| binder | valueMeasured |
| --- | --- |
| Germ6 (antibody, V domains shown) VH: ADLVQSGAVVKKPGDSVRVSCEAQGYRFPDYIIHWIRRAPGQGPEWMGWMNPMGGQVNIPWKFQGRVSMTRDTSIETAYLDLRGLKSDDTAVYYCVRDRSNGSGKRFESSNWFLDLWGRGTAVTVQS VL: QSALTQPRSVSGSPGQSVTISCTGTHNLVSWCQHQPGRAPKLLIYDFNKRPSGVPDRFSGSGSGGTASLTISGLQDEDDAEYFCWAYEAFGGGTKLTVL | 0.102 |
| Germ23_NglycoSA_CysCV (antibody, V domains shown) VH: QVQLVQSGAEVKKPGASVKVSCEASGYRFPDYIIHWIRRAPGQGPEWMGWMNPMGGQVNIPWKFQGRVSMTRDTSIETAYMELRGLRSDDTAVYYCVRDRSNGAGKRFESSNWFLDLWGRGTLVTVSS VL: QSALTQPRSVSGSPGQSVTISCTGTHNLVSWVQHHPGKAPKLMIYDFNKRPSGVPDRFSGSGSGGTASLTISGLQAEDEAEYFCWAYEAFGGGTKLTVL | 0.831 |
